Test system: A431
METHOD_DESCRIPTION: whole-cell filipin (free cholesterol) integrated intensity, Z-score; higher = more cholesterol staining
ASSAY_CONTEXT: compound concentration in added solution (µM; 5 µl added to 20 µl cells): 10; 18 h
Where a name gives a salt, the structure may show the parent alone.
PROPERTY_NAME: whole-cell filipin (z-score)

Task item: Please give measured whole-cell filipin (z-score) of the following entry: COc1ccc2cc(CCC(C)=O)ccc2c1
Reply: -0.304

Task item: Please give measured whole-cell filipin (z-score) of the following entry: CC1=C(C(=O)O)N2C(=O)[C@@H](NC(=O)[C@H](N)c3ccccc3)[C@H]2SC1 [Cephalexin monohydrate]
Reply: -0.64

Task item: Please give measured whole-cell filipin (z-score) of the following entry: CCc1c2c(nc3ccc(OC(=O)N4CCC(N5CCCCC5)CC4)cc13)-c1cc3c(c(=O)n1C2)COC(=O)[C@]3(O)CC [Irinotecan Hydrochloride]
Reply: 3.24

Task item: Please give measured whole-cell filipin (z-score) of the following entry: COc1ccccc1OCC(O)CN1CCN(CC(=O)Nc2c(C)cccc2C)CC1 (centres undefined)
Reply: -0.112

Task item: Please give measured whole-cell filipin (z-score) of the following entry: CN(CCCCCCCCCCN(C)C(=O)Oc1cccc([N+](C)(C)C)c1)C(=O)Oc1cccc([N+](C)(C)C)c1 [Demecarium bromide]
Reply: -0.139

Task item: Please give measured whole-cell filipin (z-score) of the following entry: CN1CCCN=C1/C=C/c1cccs1 [Pyrantel tartrate]
Reply: -0.934

Task item: Please give measured whole-cell filipin (z-score) of the following entry: CN[C@@H]1[C@@H](O[C@H]2O[C@H](CO)[C@@H](N)[C@H](O)[C@H]2O)OC2C[C@@H](N)[C@@H](O[C@H]3[C@H](O)[C@@H](O)[C@H](N)C[C@@H]3N)OC2[C@@H]1O (some centres undefined)
Reply: -0.077

Task item: Please give measured whole-cell filipin (z-score) of the following entry: c1ccc2c(CC3=NCCN3)cccc2c1 [Naphazoline hydrochloride]
Reply: -0.75

Task item: Please give measured whole-cell filipin (z-score) of the following entry: Cc1ccccc1C(OCCN(C)C)c1ccccc1 (centres undefined) [Orphenadrine hydrochloride]
Reply: -0.344
